- study_target: Torsin-1A (Homo sapiens) (UniProt O14656)
- Sequence (O14656 whole entry, looked up): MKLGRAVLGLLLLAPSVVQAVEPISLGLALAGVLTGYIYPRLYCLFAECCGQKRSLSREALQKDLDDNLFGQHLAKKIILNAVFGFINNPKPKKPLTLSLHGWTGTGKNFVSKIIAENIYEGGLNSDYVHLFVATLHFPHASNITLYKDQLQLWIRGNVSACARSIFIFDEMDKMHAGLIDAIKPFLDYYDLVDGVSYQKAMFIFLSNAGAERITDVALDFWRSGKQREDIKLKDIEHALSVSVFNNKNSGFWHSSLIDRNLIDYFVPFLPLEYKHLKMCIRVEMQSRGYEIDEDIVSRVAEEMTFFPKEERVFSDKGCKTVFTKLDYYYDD
- test_summary: torsin A binders from cell lysate, primary screen, small-molecule microarray, wild-type, 635/667 nm (AID 1149)
- test_settings: COS7 hTOR1A-WT lysate, 635 nm fluorescence, higher = more signal

| compound | study_target | composite z-score |
| --- | --- | --- |
| CCOC(=O)C[C@H]1[C@H](OC(=O)c2cc3ccccc3oc2=O)[C@@H](NC(=O)C2CCCCC2)c2cc(OCCCO)ccc2N1C(=O)c1ccccc1 | Torsin-1A (Homo sapiens) (UniProt O14656) | 0.046 |
| COc1ccc(C(=O)Nc2ccc(CN3C(=O)[C@@]4(O[C@@H](CCO)[C@H]([Si](C)(C)c5ccc(OC)cc5)[C@H]4C)c4ccccc43)cc2)cc1 | Torsin-1A (Homo sapiens) (UniProt O14656) | 1.05 |
| CCCCCN1CC=CC23O[C@@H]4/C=C\CCCOC(=O)C4[C@H]2C(=O)N(C(CO)C(C)C)[C@@H]3C1=O (some centres not stated) | Torsin-1A (Homo sapiens) (UniProt O14656) | -0.731 |
| CCN(CC)c1ccc(N2CC=CC34O[C@@H]5/C=C\CCC(C)OC(=O)C5[C@H]3C(=O)N(C(CO)C(C)C)[C@@H]4C2=O)cc1 (some centres not stated) | Torsin-1A (Homo sapiens) (UniProt O14656) | -0.918 |
| COc1cc2c(cc1O)C=[N+](Cc1cccc(OC(F)(F)F)c1)CC2 | Torsin-1A (Homo sapiens) (UniProt O14656) | 0.955 |
| CCCN1C(=O)[C@]2(CCS(=O)(=O)c3ccccc3)N=C(c3ccc(OCCCO)cc3)O[C@@H]2c2ccccc21 | Torsin-1A (Homo sapiens) (UniProt O14656) | 1.33 |
| COCCCNC(=O)[C@@]1(Cc2ccccc2)N=C(c2ccc(OCCCO)cc2)O[C@H]1c1ccccc1 | Torsin-1A (Homo sapiens) (UniProt O14656) | 0.268 |
